- Test system: SW480
- experimental.protocol: TCF/Wnt firefly luciferase reporter signal relative to plate median (fraction of plate median); higher = higher Wnt reporter signal
- test.context: 5 µM; treatment time 24 h; reporter: 7TFP
// label = 1 if TCF/Wnt firefly luciferase reporter signal is not less than 1, otherwise -1

The examples below pair each entry with its known result.
Challenge: Say whether CN1CCCN=C1COC(=O)C(O)(c1ccccc1)C1CCCCC1 (stereo not given) shows TCF/Wnt firefly luciferase reporter signal of 1 or more.
Response given: 1

Challenge: Say whether NS(=O)(=O)c1ccc(S(=O)(=O)Nc2cccc3c(Cl)c[nH]c23)cc1 shows TCF/Wnt firefly luciferase reporter signal of 1 or more.
Response given: 1

Challenge: Say whether CC(=O)N(O)CCCCCNC(=O)CC(O)(CC(=O)NCCCCCN(O)C(C)=O)C(=O)O shows TCF/Wnt firefly luciferase reporter signal of 1 or more.
Response given: 1

Challenge: Say whether CN(C)[C@@H]1C(O)=C(C(N)=O)C(=O)[C@@]2(O)C(O)=C3C(=O)c4c(O)cccc4[C@@](C)(O)[C@H]3C[C@@H]12 shows TCF/Wnt firefly luciferase reporter signal of 1 or more.
Response given: -1

Challenge: Say whether CN1CCC(=C2c3ccccc3CC(=O)c3sccc32)CC1 shows TCF/Wnt firefly luciferase reporter signal of 1 or more.
Response given: -1

Next, consider the following compound.
Challenge: Say whether COc1cnc(NS(=O)(=O)c2ccc(N)cc2)nc1 shows TCF/Wnt firefly luciferase reporter signal of 1 or more.
Response given: -1

---

- System: HCT116
- experimental.protocol: cell viability (CellTiter-Glo) relative to plate median (fraction of plate median); higher = more viable cells
- test.context: 5 µM; treatment time 24 h; reporter: TCF4/Wnt
Mark Fulfilled for cell viability under 1, Not fulfilled if at or over.

The examples below pair each entry with its known result.
Challenge: Find out if reported cell viability for CCOC(=O)c1ncn2c1CN(C)C(=O)c1cc(F)ccc1-2 is less than 1
Response given: Not fulfilled

Challenge: Find out if reported cell viability for N[C@@H](CCC(=O)N[C@@H](CS)C(=O)NCC(=O)O)C(=O)O is less than 1
Response given: Not fulfilled

Continuing:
Challenge: Find out if reported cell viability for O=C(COc1ccc(Cl)cc1)N1CCN(Cc2ccc3c(c2)OCO3)CC1 is less than 1
Response given: Fulfilled

Challenge: Find out if reported cell viability for Oc1ccc2c(c1)O[C@H](c1ccc(O)c(O)c1)[C@@H](O)C2 is less than 1
Response given: Not fulfilled

---

- Test system: SW480
- experimental.protocol: TCF/Wnt firefly luciferase reporter signal relative to plate median (fraction of plate median); higher = higher Wnt reporter signal
- test.context: 10 µM; treatment time 24 h; reporter: 7TFP
quantity: TCF/Wnt firefly luciferase reporter signal

Please review the entries below; each comes with its answer.
Challenge: I am curious: what TCF/Wnt firefly luciferase reporter signal value has been reported for COc1cccc(-c2cc(=O)c3ccccc3o2)c1N ?
Response given: 1.27

Challenge: I am curious: what TCF/Wnt firefly luciferase reporter signal value has been reported for CCOc1cc2ncc(C#N)c(Nc3ccc(OCc4ccccn4)c(Cl)c3)c2cc1NC(=O)/C=C/CN(C)C [Neratinib (HKI-272)] ?
Response given: 0.508

Challenge: I am curious: what TCF/Wnt firefly luciferase reporter signal value has been reported for CNC(=O)c1ccccc1Nc1nc(Nc2ccc(N3CCOCC3)cc2OC)ncc1Cl ?
Response given: 1.08

Challenge: I am curious: what TCF/Wnt firefly luciferase reporter signal value has been reported for COC(=O)Nc1ccc(-c2nc(N3CCOCC3)c3cnn(C4CCN(Cc5cccnc5)CC4)c3n2)cc1 ?
Response given: 0.765

Challenge: I am curious: what TCF/Wnt firefly luciferase reporter signal value has been reported for COc1cc2/c(=N/c3ccc(Br)cc3F)nc[nH]c2cc1OCC1CCN(C)CC1 [Vandetanib (Zactima)] ?
Response given: 1.2

Challenge: I am curious: what TCF/Wnt firefly luciferase reporter signal value has been reported for CCC[C@H](NC(=O)/C(C#N)=C/c1cccc(Br)n1)c1ccccc1 ?
Response given: 0.037

Challenge: I am curious: what TCF/Wnt firefly luciferase reporter signal value has been reported for NC(=O)c1ccc(-c2nc(-c3ccccn3)c(-c3ccc4c(c3)OCO4)[nH]2)cc1 ?
Response given: 0.944

Challenge: I am curious: what TCF/Wnt firefly luciferase reporter signal value has been reported for CCCS(=O)(=O)Nc1ccc(F)c(C(=O)c2c[nH]c3ncc(Cl)cc23)c1F ?
Response given: 0.786

Moving on to another compound below.
Challenge: I am curious: what TCF/Wnt firefly luciferase reporter signal value has been reported for C[C@@H](Oc1cc(-c2cnn(C3CCNCC3)c2)cnc1N)c1c(Cl)ccc(F)c1Cl ?
Response given: 0.682
